Target: human sodium channel Nav 1.8 (Homo sapiens (Human), UniProt Q9Y5Y9)
Sequence (Q9Y5Y9 whole entry): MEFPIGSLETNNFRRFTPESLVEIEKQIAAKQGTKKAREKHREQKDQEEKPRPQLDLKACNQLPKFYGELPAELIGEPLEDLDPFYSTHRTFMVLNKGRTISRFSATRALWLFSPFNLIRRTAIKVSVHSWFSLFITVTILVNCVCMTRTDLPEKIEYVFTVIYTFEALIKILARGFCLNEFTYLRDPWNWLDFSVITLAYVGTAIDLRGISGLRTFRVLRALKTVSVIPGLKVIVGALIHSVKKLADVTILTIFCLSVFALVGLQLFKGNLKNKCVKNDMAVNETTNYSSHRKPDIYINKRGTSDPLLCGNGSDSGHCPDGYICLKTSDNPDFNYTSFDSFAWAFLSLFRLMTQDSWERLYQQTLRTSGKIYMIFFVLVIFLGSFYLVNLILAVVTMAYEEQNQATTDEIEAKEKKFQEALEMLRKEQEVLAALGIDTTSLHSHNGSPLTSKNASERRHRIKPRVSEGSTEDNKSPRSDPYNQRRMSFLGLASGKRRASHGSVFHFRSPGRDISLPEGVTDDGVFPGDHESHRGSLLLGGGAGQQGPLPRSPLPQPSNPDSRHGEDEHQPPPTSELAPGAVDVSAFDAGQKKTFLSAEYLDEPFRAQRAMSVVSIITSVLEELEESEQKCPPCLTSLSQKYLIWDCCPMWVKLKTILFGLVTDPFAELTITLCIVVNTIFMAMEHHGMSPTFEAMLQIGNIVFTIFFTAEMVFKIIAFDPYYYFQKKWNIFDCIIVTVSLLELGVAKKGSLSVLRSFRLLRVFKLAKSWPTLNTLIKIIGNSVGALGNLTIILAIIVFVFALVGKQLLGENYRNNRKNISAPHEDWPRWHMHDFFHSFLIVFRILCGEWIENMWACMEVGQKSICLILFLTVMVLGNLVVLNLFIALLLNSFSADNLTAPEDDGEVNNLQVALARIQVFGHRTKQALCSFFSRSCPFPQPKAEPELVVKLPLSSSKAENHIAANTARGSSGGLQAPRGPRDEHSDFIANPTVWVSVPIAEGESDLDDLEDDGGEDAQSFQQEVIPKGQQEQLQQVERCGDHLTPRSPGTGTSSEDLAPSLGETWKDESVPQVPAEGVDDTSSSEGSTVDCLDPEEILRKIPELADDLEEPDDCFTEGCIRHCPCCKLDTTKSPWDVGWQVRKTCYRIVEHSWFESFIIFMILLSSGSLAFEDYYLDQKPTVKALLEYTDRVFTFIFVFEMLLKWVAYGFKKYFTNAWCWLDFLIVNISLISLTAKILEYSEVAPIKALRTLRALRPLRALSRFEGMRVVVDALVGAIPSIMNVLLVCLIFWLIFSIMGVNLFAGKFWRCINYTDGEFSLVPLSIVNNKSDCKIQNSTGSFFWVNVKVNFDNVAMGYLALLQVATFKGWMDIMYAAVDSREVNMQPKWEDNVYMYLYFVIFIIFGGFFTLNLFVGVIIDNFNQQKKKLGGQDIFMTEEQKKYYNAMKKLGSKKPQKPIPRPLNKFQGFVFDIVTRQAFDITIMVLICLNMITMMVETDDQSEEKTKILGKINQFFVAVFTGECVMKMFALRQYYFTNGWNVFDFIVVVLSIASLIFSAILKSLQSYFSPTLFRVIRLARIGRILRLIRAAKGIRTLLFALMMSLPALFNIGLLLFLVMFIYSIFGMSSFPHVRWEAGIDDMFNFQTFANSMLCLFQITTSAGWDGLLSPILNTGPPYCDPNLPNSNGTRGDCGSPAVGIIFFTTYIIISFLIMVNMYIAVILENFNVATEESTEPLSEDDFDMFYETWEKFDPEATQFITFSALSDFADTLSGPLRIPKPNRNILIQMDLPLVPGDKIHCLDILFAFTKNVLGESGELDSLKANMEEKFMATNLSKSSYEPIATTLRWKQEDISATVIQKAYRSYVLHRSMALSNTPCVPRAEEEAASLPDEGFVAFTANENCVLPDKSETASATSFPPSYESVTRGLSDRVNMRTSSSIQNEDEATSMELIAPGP
Assay: Automated whole-cell voltage-clamp (ScreenPatch 384P), Nav 1.8 sodium current, Protocol 2
Type: cell-based
Conditions: read-out: Nav1.8 IC50
Collected log10(IC50) values appear next to each entry.
Log10 applied to IC50; unit prior to transform: µM.

Examples from the recorded data:
[[record]]
compound_structure = "CCOc1ccc(-c2cncc(C(=O)N/N=C/c3cc(F)cc(OC)c3)n2)cc1"
value_observed = -1.60

[[record]]
compound_structure = "COc1cc(/C=N/NC(=O)c2cncc(-c3ccc(OCC4CC4)cc3)n2)cc(OC)c1"
value_observed = -1.05

[[record]]
compound_structure = "CCOc1ccc(-c2cncc(C(=O)N/N=C/c3cc(OC)cc(OC)c3OCC)n2)cc1"
value_observed = -0.81

[[record]]
compound_structure = "COc1ccc(-c2cncc(C(=O)N/N=C/c3ccccc3OC)n2)cc1"
value_observed = -0.21

[[record]]
compound_structure = "COc1cc(/C=N/NC(=O)c2cncc(-c3ccc(OC4CCCC4)cc3)n2)cc(OC)c1"
value_observed = -0.99


Item `COc1cc(/C=N/NC(=O)c2cncc(-c3ccccc3OC)n2)cc(OC)c1` with human sodium channel Nav 1.8 (Homo sapiens (Human), UniProt Q9Y5Y9) - log10(IC50)?
-0.34

Any idea what log10(IC50) came out for `COc1cc(/C=N/NC(=O)c2cncc(-c3ccc(OC)cc3C)n2)cc(OC)c1` on human sodium channel Nav 1.8 (Homo sapiens (Human), UniProt Q9Y5Y9)?
-0.83

* * *

Biological target: human sodium channel Nav 1.7 (Homo sapiens (Human), UniProt Q15858)
Sequence (Q15858 whole entry): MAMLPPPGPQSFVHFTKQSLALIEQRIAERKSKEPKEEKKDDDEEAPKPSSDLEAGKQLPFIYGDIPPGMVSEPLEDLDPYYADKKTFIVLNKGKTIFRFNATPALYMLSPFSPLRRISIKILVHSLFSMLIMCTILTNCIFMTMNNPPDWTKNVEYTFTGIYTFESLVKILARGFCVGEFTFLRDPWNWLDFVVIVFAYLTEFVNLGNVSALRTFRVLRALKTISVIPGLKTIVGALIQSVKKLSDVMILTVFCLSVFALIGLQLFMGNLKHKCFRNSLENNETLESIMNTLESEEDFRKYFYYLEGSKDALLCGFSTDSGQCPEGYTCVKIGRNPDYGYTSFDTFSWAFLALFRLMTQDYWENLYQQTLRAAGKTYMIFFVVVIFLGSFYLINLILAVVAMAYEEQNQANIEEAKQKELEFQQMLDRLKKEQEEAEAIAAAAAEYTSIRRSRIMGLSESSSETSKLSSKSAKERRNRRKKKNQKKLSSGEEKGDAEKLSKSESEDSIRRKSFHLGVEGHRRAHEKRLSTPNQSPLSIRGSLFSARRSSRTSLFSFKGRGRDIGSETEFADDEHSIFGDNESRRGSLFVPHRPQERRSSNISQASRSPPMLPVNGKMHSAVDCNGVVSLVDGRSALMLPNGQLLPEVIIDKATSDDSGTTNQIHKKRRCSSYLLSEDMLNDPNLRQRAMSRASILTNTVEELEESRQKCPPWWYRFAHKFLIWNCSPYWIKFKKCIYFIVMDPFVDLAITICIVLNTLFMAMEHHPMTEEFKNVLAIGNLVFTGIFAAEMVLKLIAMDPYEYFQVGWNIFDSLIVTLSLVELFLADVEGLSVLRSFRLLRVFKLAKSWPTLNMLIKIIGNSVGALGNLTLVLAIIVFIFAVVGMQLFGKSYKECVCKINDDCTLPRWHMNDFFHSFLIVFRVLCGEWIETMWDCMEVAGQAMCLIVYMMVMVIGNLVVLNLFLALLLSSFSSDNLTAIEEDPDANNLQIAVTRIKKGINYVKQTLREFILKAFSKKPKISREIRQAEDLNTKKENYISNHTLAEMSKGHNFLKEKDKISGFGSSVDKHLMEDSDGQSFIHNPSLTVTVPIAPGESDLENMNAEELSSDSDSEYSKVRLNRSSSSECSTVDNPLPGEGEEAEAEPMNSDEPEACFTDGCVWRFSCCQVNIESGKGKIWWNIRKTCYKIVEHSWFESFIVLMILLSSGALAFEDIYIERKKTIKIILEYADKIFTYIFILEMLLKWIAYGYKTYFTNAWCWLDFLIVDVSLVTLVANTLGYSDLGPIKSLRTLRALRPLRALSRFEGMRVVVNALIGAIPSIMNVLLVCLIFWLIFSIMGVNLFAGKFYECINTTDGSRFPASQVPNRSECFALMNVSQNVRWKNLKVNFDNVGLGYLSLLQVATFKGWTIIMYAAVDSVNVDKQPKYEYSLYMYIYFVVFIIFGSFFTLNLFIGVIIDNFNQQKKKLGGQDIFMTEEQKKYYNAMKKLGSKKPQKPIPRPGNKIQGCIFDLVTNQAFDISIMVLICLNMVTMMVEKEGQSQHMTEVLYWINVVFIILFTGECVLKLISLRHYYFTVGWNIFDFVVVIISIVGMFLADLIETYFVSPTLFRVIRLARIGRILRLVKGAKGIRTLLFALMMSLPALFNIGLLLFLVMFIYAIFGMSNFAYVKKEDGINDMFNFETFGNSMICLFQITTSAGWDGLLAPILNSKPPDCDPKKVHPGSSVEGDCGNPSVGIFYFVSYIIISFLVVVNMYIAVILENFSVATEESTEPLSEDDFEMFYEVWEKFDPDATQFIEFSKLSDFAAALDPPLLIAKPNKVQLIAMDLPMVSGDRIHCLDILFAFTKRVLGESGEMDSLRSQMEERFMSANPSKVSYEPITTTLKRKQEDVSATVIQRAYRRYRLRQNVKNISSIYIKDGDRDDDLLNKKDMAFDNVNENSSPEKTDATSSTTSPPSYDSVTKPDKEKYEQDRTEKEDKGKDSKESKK
Test: Automated whole-cell voltage-clamp (ScreenPatch 384P), Nav 1.7 sodium current, Protocol 1
Format: cell-based
Conditions: Protocol 1 (holding voltage -90 mV, 0.1 Hz); CHO cells expressing human Nav 1.7; room temperature; read-out: Nav1.7 IC50
The following compounds are shown together with reported IC50 values.

Check out these entries, answers already filled in.
[[record]]
compound_structure = "CCOc1ccc(-c2cncc(C(=O)N/N=C/c3cc(OC)cc4ncoc34)n2)cc1"
value_observed = "> 10000 nM"

[[record]]
compound_structure = "CCOc1ccc(-c2cncc(C(=O)N/N=C/c3ccc(OC)c(OC)c3)n2)cc1"
value_observed = "1400 nM"

[[record]]
compound_structure = "CCOc1ccc(-c2cncc(C(=O)N/N=C/c3ccc(OC)cc3)n2)cc1"
value_observed = "697 nM"

[[record]]
compound_structure = "CCOc1ccc(-c2cncc(C(=O)N/N=C/c3cc(OC)ccn3)n2)cc1"
value_observed = "> 10000 nM"


Proceeding to the next compound to report its IC50.
Could you share which IC50 value was measured for `CCOc1ccc(-c2cncc(C(=O)N/N=C/c3cccc(OC)n3)n2)cc1` ?
4520 nM

* * *

molecules and their reported IC50
Molecular target: human sodium channel Nav 1.7 (Homo sapiens (Human), UniProt Q15858)
Experiment: Automated whole-cell voltage-clamp (ScreenPatch 384P), Nav 1.7 sodium current, Protocol 2
Format: cell-based
Conditions: read-out: Nav1.7 IC50
Record the value in nM, omitting the unit from your answer.

[[record]]
compound_structure = "COc1cc(/C=N/NC(=O)c2cncc(-c3ccc(OC)cc3OC(C)C)n2)cc(OC)c1"
measure_unit = "nM"
value_observed = 4790

[[record]]
compound_structure = "COc1ccc(-c2cncc(C(=O)N/N=C/c3cccc(OC)c3)n2)cc1"
measure_unit = "nM"
value_observed = 1570

[[record]]
compound_structure = "COc1ccc(-c2cncc(C(=O)N/N=C/c3cccc(C)c3)n2)cc1"
measure_unit = "nM"
value_observed = 1050

[[record]]
compound_structure = "CCOc1ccc(-c2cncc(C(=O)N/N=C/c3cccc(OC)c3)n2)c(C(F)(F)F)c1"
measure_unit = "nM"
value_observed = 116

[[record]]
compound_structure = "COc1cc(/C=N/NC(=O)c2cncc(-c3ccc(OCC(C)C)cc3)n2)cc(OC)c1"
measure_unit = "nM"
value_observed = 159


Look up IC50 for this molecule: `COc1ccc(-c2cncc(C(=O)N/N=C/c3ccccc3F)n2)cc1`
1990

Param item = `COc1cc(/C=N/NC(=O)c2cncc(-c3ccc(OC)cc3F)n2)cc(OC)c1` ; retrieve measured IC50.
499

Please give the measured IC50 for this molecule: `CCOc1ccc(-c2cncc(C(=O)N/N=C/c3cc(OC)cc(OC)c3)n2)c(C(F)(F)F)c1`
219

* * *

Form field: pIC50 (one value per entry).
Molecular target: human sodium channel Nav 1.7 (Homo sapiens (Human), UniProt Q15858)
Experiment: Automated whole-cell voltage-clamp (ScreenPatch 384P), Nav 1.7 sodium current, Protocol 2
Format: cell-based
Details: read-out: Nav1.7 IC50
In simple prose, pIC50 is minus the logarithm base ten of a concentration in moles per litre.

Completed entries (count: 6):
[[record]]
compound = "CC1=C(/C=N/NC(=O)c2cncc(-c3ccc(OC(C)C)cc3)n2)CCCC1 [Compound 199]"
property = "pIC50"
value_observed = 5.76

[[record]]
compound = "CC(C)Oc1ccc(-c2cncc(C(=O)N/N=C/C3CCCCC3)n2)cc1 [Compound 175]"
property = "pIC50"
value_observed = 6.96

[[record]]
compound = "COc1cc(/C=N/NC(=O)c2cncc(-c3ccc(OC)cc3OC)n2)cc(OC)c1 [Compound 124]"
property = "pIC50"
value_observed = 6.74

[[record]]
compound = "COc1cc(/C=N/NC(=O)c2cncc(-c3ccc(OC)cc3C(F)(F)F)n2)cc(OC)c1 [Compound 123]"
property = "pIC50"
value_observed = 7.31

[[record]]
compound = "COc1cc(/C=N/NC(=O)c2cncc(-c3ccc(OCSC)cc3)n2)cc(OC)c1 [Compound 149]"
property = "pIC50"
value_observed = 6.91

[[record]]
compound = "COc1ccc(-c2cncc(C(=O)N/N=C/c3ccccc3C(C)(C)C)n2)cc1 [Compound 52]"
property = "pIC50"
value_observed = 5.45


In the following, a different compound is considered.
Fill in the blank: the reported pIC50 of CCOc1ccc(-c2cncc(C(=O)N/N=C/c3cc(F)cc(OC)c3)n2)cc1 [Compound 15] is ____.
6.61

* * *

Molecular target: human sodium channel Nav 1.7 (Homo sapiens (Human))
Assay: Automated whole-cell voltage-clamp (ScreenPatch 384P), Nav 1.7 sodium current, Protocol 2
Assay type: cell-based
Conditions: read-out: Nav1.7 IC50
Label key: Yes means IC50 under 300 nM; No means IC50 of 300 nM or more.

Use the examples below as a reference point.
[[record]]
compound = "CC(C)Oc1ccc(-c2cncc(C(=O)N/N=C/C3CCCCCC3)n2)cc1 [Compound 183]"
answer_label = "Yes"

[[record]]
compound = "COc1cc(/C=N/NC(=O)c2cncc(-c3ccc(OC)cc3Cl)n2)cc(OC)c1 [Compound 122]"
answer_label = "No"

[[record]]
compound = "CCOc1ccc(-c2cncc(C(=O)N/N=C/c3cc(OC)cc(OC)c3)n2)cc1 [Compound 2]"
answer_label = "Yes"

[[record]]
compound = "COc1ccc(-c2cncc(C(=O)N/N=C/c3ccc(C(F)(F)F)cc3)n2)cc1 [Compound 63]"
answer_label = "No"

[[record]]
compound = "COc1ccc(-c2cncc(C(=O)N/N=C/c3ccccc3C(F)(F)F)n2)cc1 [Compound 49]"
answer_label = "No"


Consider COc1cc(/C=N/NC(=O)c2cncc(-c3ccc(OC4CCCC4)cc3)n2)cc(OC)c1 [Compound 30] . Does its IC50 lie strictly below 300 nM?
Yes

Does the reported IC50 of COc1ccc(-c2cncc(C(=O)N/N=C/c3cc(C(C)(C)C)cc(C(C)(C)C)c3)n2)cc1 [Compound 76] stay below 300 nM?
No

Criterion: IC50 strictly below 300 nM. Is it met by COc1ccc(-c2cncc(C(=O)N/N=C/c3cccnc3)n2)cc1 [Compound 77] ?
No

* * *

Examples of compounds with documented pIC50 follow.
Target: human sodium channel Nav 1.7 (Homo sapiens (Human))
Experiment: Automated whole-cell voltage-clamp (ScreenPatch 384P), Nav 1.7 sodium current, Protocol 2
Type: cell-based
Details: read-out: Nav1.7 IC50
// scale note: pIC50 = -log10(conc_M); give the bare number

// below: answered compounds
[[record]]
compound_structure = "COc1ccc(-c2cncc(C(=O)N/N=C/c3ccc(OC)cc3OC)n2)cc1"
property = "pIC50"
value_observed = 5.15

[[record]]
compound_structure = "COc1ccc(-c2cncc(C(=O)N/N=C/c3ccccc3Cl)n2)cc1"
property = "pIC50"
value_observed = 5.85


Please examine the following record next.
Give the measured pIC50 of `CCOc1ccc(-c2cncc(C(=O)N/N=C/c3cc(F)cc(OC)c3)n2)c(OC)c1` .
7.35

* * *

Molecular target: UniProtKB Q15858
Assay: Automated whole-cell voltage-clamp (ScreenPatch 384P), Nav 1.7 sodium current, Protocol 2
Format: cell-based
Conditions: read-out: Nav1.7 IC50
The threshold is 3000 nM. Values of IC50 beneath it are tagged T; values meeting or exceeding it are tagged F.

Reference set, count: 2
[[record]]
compound_structure = "COc1ccc(-c2cncc(C(=O)N/N=C/c3ccc(C)cc3)n2)cc1"
tgt = "UniProtKB Q15858"
answer_label = "F"

[[record]]
compound_structure = "COc1cc(/C=N/NC(=O)c2cncc(-c3cccc(F)c3)n2)cc(OC)c1"
tgt = "UniProtKB Q15858"
answer_label = "F"


Now, please, on to the next molecule.
Is IC50 of `CCOc1ccc(-c2cncc(C(=O)N/N=C/c3cccc(OC)c3F)n2)cc1` strictly below 3000 nM?
T
